Source of measurements: the supplement of paper PMC11451515

# Test system: SEM cells
# assayMethodText: cell viability relative to DMSO control; higher = less cytotoxic
# conditionsUsed: HPLM + 10% dialyzed FBS; 48 h; 0.19 µM
endpointName: cell viability (%)
Your answer should be a plain number; it is taken to be in %.

Measured cell viability, COCCCN1CCC(NC(=O)c2cc(Cl)c(N)c3c2OCC3)CC1 : 123

Measured cell viability, NC\1=N\C(=O)N(\C=C1)[C@@H]2O[C@H](CO)[C@@H](O)[C@H]2O : 131

Measured cell viability, CC1COC2(CCN(CC2)C/3=N/C(=O)C4=CC(=CC(=C4S3)[N+]([O-])=O)C(F)(F)F)O1 (stereo not drawn) : 126
